Where do the numbers come from? From patent US20210301005A1.

Quick reference for HEKBlue TGFβ blocking IC50 among some binders
Target: T1, human TGFβ3, mature dimeric form (human, UniProt P10600 301-412)
T1 sequence: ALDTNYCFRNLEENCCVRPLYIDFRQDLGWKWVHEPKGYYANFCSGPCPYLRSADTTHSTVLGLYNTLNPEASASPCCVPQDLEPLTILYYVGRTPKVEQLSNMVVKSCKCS
Assay: cell-based or functional assay
Just the number in nM, nothing appended.

binder	units-of-measure	recorded-number
h4A11.v6 (antibody, human IgG1, kappa, N297G, V domains shown) VH: EQQLVESGGGLVQPGGSLRLSCAVSGFSLSSYTVNWVRQAPGKGLEWIGYISYGGSAYYASWANGRFTISKDSAKNSVYLQMNSLRAEDTAVYFCARHMQVGGAPTGSMAAFDPWGPGTLVTVSS VL: DAVLTQTPLSSPVTLGQPASISCQSSQSVYNNNYLSWFQQRPGQPPRLLIYGASTLTSGVPDRFSGSGAGTDFTLKISRVEAEDVGVYYCAGGYSGSSDKYAFGGGTKVEIKR	nM	6.7

Continue with the next binder.
Input line: Could you share which HEKBlue TGFβ blocking IC50 value was measured for 4A11 (antibody, V domains shown, anti-TGFβ2/3, recombinant rabbit monoclonal; some paragraphs print the H/L pair as 32/33; also called Rb1.4A11; Rbt 4A11) VH: QSLEESGGRLVTPGTPLTLTCTVSGFSLSSYTVNWVRQAPGKGLEWIGYISYGGSAYYASWANGRFTISKTSATVDLKITSPTTEDTATYFCARHMQVGGAPTGSMAAFDPWGPGTLVTVSS VL: AAVLTQTPSPVSAAVGGTVSISCQSSQSVYNNNYLSWFQQKPGQPPKLLIYGASTLTSGVPSRFKGSGSGTQFTLTISDVQCDDAATYYCAGGYSGSSDKYAFGGGTEVVVKG ?
Output line: 0.06
